# reported pIC50; entries follow
# targetUnderTest: PD-1/PD-L1 (Homo sapiens (Human), UniProt Q9NZQ7)
# Sequence (Q9NZQ7 19-238): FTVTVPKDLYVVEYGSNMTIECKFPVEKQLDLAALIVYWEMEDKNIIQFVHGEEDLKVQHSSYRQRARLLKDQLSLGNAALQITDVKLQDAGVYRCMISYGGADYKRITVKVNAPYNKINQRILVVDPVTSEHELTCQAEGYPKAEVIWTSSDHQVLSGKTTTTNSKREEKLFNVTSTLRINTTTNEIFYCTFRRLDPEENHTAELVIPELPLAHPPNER
# measurementDescription: PD-1/PD-L1 biochemical protein-protein interaction assay (ALPHA)
# assayContext: 0.3 nM His tagged PD-L1, 2.5 nM biotinylated Fc-PD-1, 60 minutes at 25° C., read-out: IC50 PD-L1-PD1
Conceptually, pIC50 converts a concentration in mol/L into minus its log10.

// worked examples, pIC50 included
compound	targetUnderTest	reportedValue
COc1nc(-c2cccc(-c3cccc(-c4cnc(CNC[C@@H]5CCC(=O)N5)c(OC)n4)c3Cl)c2Cl)cnc1CNCC1CCN(C(C)=O)C1 (stereo partly drawn) [compound 227]	PD-1/PD-L1 (Homo sapiens (Human), UniProt Q9NZQ7)	9.87
CNC(=O)NC1CN(Cc2ncc(-c3cccc(-c4cccc(-c5cnc(CN6CC(NC(=O)NC)C6)c(OC)n5)c4Cl)c3Cl)nc2OC)C1 [compound 554]	PD-1/PD-L1 (Homo sapiens (Human), UniProt Q9NZQ7)	10.00
COc1nc(-c2cccc(-c3cccc(-c4cnc(CN5CC(O)(C6CC6)C5)c(OC)n4)c3Cl)c2Cl)cnc1CNC[C@@H]1CCC(=O)N1 [compound 549]	PD-1/PD-L1 (Homo sapiens (Human), UniProt Q9NZQ7)	9.71
COC1CN(Cc2ncc(-c3cccc(-c4cccc(-c5cnc(CN6CC(OC)C6)c(C)n5)c4Cl)c3Cl)nc2C)C1 [compound 92]	PD-1/PD-L1 (Homo sapiens (Human), UniProt Q9NZQ7)	8.99
COC[C@@H]1CC[C@H]1NCc1ncc(-c2cccc(-c3cccc(-c4cnc(CNC[C@@H]5CCC(=O)N5)c(OC)n4)c3Cl)c2Cl)nc1OC [compound 215]	PD-1/PD-L1 (Homo sapiens (Human), UniProt Q9NZQ7)	9.96

Given COc1nc(-c2cccc(-c3cccc(-c4cnc(CN5CC6(CNC(=O)O6)C5)c(OC)n4)c3Cl)c2Cl)cnc1CNC[C@@H]1CCC(=O)N1 [compound 50] , state its recorded pIC50.
9.59

---

# reported pIC50; entries follow
# targetUnderTest: PD-1/PD-L1 (Homo sapiens (Human))
# measurementDescription: PD-1/PD-L1 biochemical protein-protein interaction assay (ALPHA)
# assayContext: 0.3 nM His tagged PD-L1, 2.5 nM biotinylated Fc-PD-1, 60 minutes at 25° C., read-out: IC50 PD-L1-PD1
Conceptually, pIC50 converts a concentration in mol/L into minus its log10.

compound	pIC50
COc1nc(-c2cccc(-c3cccc(-c4cnc(CNC[C@H]5C[C@H](O)C5)c(OC)n4)c3Cl)c2Cl)ccc1CNC[C@@H]1CCC(=O)N1 [compound 656]	9.78
COc1nc(-c2cccc(-c3cccc(-c4cnc(CNCC5CCS(=O)(=O)N5)c(OC)n4)c3Cl)c2Cl)cnc1CNCC1CCS(=O)(=O)N1 (stereo not drawn) [compound 576]	9.19
COc1nc(-c2cccc(-c3cccc(-c4cnc(CN5CC(NS(C)(=O)=O)C5)c(OC)n4)c3Cl)c2Cl)cnc1CN1CC(NS(C)(=O)=O)C1 [compound 556]	9.75
COc1nc(-c2cccc(-c3cccc(-c4cnc(CNC[C@@H]5CCC(=O)N5)c(OC)n4)c3Cl)c2Cl)cnc1CNCc1ccc(S(N)(=O)=O)s1 [compound 337]	8.96
CN(C)c1nc(-c2cccc(-c3cccc(-c4cnc(CNC[C@@H]5CCC(=O)N5)c(Cl)n4)c3Cl)c2Cl)cnc1CNC[C@@H]1CCC(=O)N1 [compound 106]	9.44

Moving on to the next compound.
Short answer please: pIC50, PD-1/PD-L1 (Homo sapiens (Human)), entry COc1nc(-c2cccc(-c3cccc(-c4cnc(CN5CCNC(=O)C5)c(OC)n4)c3Cl)c2Cl)cnc1CNC[C@@H]1CCC(=O)N1 [compound 41]
10.08
